Listed below: T/C values for each entry.
- System: P388 leukemia ip, CD2F1 mice, survival T/C
- protocol details: NCI In Vivo Anticancer Drug Screen. Data for tumor model P388 Leukemia (intraperitoneal) in CD2F1 (CDF1) mice
- test parameters: endpoint: median survival time; dose: 50.0 mg/kg/injection; schedule: Q04DX003 (ip); vehicle: saline; higher = longer survival
Toxic doses and inconclusive results are not listed.

# compound, T/C
measured = [
    ("Cc1cc2c3ccccc3[nH]c(=O)n2n1", "101 % of control"),
    ("CN1CC[N+](C)(Cc2ccc(C[N+]3(C)CC[N+](C)(Cc4ccc(CCl)cc4)CC3)cc2)CC1 (stereo unspecified)", "119 % of control"),
    ("NN(C(=O)c1ccccc1)C1CCCCC1", "100 % of control"),
    ("COC(=O)Nc1nc2ccc(C3(c4ccc(F)cc4)OCCO3)cc2[nH]1", "168 % of control"),
    ("O=S(=O)(NO)c1cccc(S(=O)(=O)NO)c1", "115 % of control"),
    ("CC(C)(C)CC(C)(C)c1ccc(OCCO)cc1", "91 % of control"),
]

###

- Tested on: P388 leukemia ip, CD2F1 mice, survival T/C
- protocol details: NCI In Vivo Anticancer Drug Screen. Data for tumor model P388 Leukemia (intraperitoneal) in CD2F1 (CDF1) mice
- test parameters: endpoint: median survival time; dose: 25.0 mg/kg/injection; schedule: Q04DX002 (ip); vehicle: saline with Tween-80; higher = longer survival
Inconclusive results and toxic doses are left out.
Listed below: T/C values for each entry.
property measured: T/C

# compound, tested on, endpoint result
rows = [
    ("CN=C1NC2C(C(=O)N(C)C(=O)N2C)C(=S)N1C (stereo not drawn)", "P388 leukemia ip, CD2F1 mice, survival T/C", "101 % of control"),
    ("O=C1C(C(=NCCO)c2ccccc2)=C(O)c2ccccc21", "P388 leukemia ip, CD2F1 mice, survival T/C", "90 % of control"),
    ("O=C1CC2C1C1C=CC2n2c(=O)n(-c3ccccc3)c(=O)n21 (stereo not drawn)", "P388 leukemia ip, CD2F1 mice, survival T/C", "99 % of control"),
    ("CCOC(=O)C1CC(=O)SC1=O (stereo not drawn)", "P388 leukemia ip, CD2F1 mice, survival T/C", "101 % of control"),
    ("CC1(C)C2(C(N)=O)C(=O)NC(=O)C12C(=O)O (stereo not drawn)", "P388 leukemia ip, CD2F1 mice, survival T/C", "95 % of control"),
    ("FC(F)(F)COP1OCCS1 (stereo not drawn)", "P388 leukemia ip, CD2F1 mice, survival T/C", "99 % of control"),
    ("C[Se]C(C)(C)C(O)(Cc1ccccc1)c1ccccc1 (stereo not drawn)", "P388 leukemia ip, CD2F1 mice, survival T/C", "88 % of control"),
    ("CCCOC(=O)/C=C(\\F)C(=O)OCCC", "P388 leukemia ip, CD2F1 mice, survival T/C", "95 % of control"),
]

###

- Test system: P388 leukemia ip, CD2F1 mice, survival T/C
- protocol details: NCI In Vivo Anticancer Drug Screen. Data for tumor model P388 Leukemia (intraperitoneal) in CD2F1 (CDF1) mice
- test parameters: endpoint: median survival time; dose: 100.0 mg/kg/injection; schedule: Q04DX003 (ip); vehicle: saline with Tween-80; higher = longer survival
Inconclusive results and toxic doses are left out.
property measured: T/C

# compound, property measured, endpoint result
data = [
    ("NC(N)=O.NC(N)=O.NC(N)=O.NC(N)=O.NC(N)=O.NC(N)=O.[O-][Cl+3]([O-])([O-])O.[V]", "T/C", "109 % of control"),
    ("COc1ccc(/C=N/Nc2ccc([N+](=O)[O-])cc2[N+](=O)[O-])cc1", "T/C", "94 % of control"),
    ("CC1=NN(C(=O)c2cccnc2)C(=O)C1N=Nc1ccc(S(=O)(=O)Nc2ccccn2)cc1 (centres undefined)", "T/C", "94 % of control"),
    ("CC(C)COP(=O)(OCC(C)C)OCC(C)C", "T/C", "90 % of control"),
]

Provenance of the data: PubChem BioAssay AID330
